# Test protocol: Stat Signaling Pathway (AID 446);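 also: SIE-controlled beta-lactamase reporter measured as 460/530 nm FRET emission ratio; % is scaled to controls: 0 for no effect and ±100 for the full control effect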
# Condition context: ME-180 (cervical carcinoma) SIE beta-lactamase reporter, IL-6 stimulated, 5 h; at 7.69 µM (top of the series) unless noted
# Procedure: NCGC Assay Overview: The IL-6/STAT signaling pathway was assayed in ME-180 cervical carcinoma cells by a beta-lactamase reporter gene controlled by a STAT Inducible Element (SIE). This reporter is induced by IL-6 at 40 pM AC50 and inhibited by the pan JAK inhibitor, 2-(1,1-Dimethylethyl)-9-fluoro-3,6-dihydro-7H-benz[h]-imidaz[4,5-f]isoquinolin-7-one, at approximately 10 nM AC50. Plated cells were incubated overnight and on the following day, stimulated with 40 pM IL-6 for 5 hrs. […]
Results filed as inconclusive are left out. Activity calls are given as the source filed them. Calls follow the shape of the dose curve; as a rule, active = well fitted curve in either direction with a large enough effect (not every such curve was filed as active); inconclusive = small, poorly fitted or top-dose-only effect, or another doubt; inactive = flat fitted curve, though single readings scatter.
Observable: activity, negative = inhibition

>>> print(df.to_string())
                                   compound                       observable                  measurement
0           C[C@@]1(C(=O)O)CCC[C@@H]1C(=O)O  activity, negative = inhibition             2.41% (inactive)
1  C[C@H](CCC(=O)O)[C@H]1CC[C@@H]2[C@@H]3CC[C@H]4C[C@@H](O)CC[C@@]4(C)[C@@H]3C[C@H](O)[C@@]21C  activity, negative = inhibition              2.1% (inactive)
2           O=C1c2ccccc2C(=O)N1CCCSc1ccccc1  activity, negative = inhibition            -7.77% (inactive)
3  C[C@H](CCC(=O)O)[C@H]1CC[C@@H]2[C@H]3CC[C@H]4C[C@H](O)CC[C@@]4(C)[C@@H]3CC[C@@]21C  activity, negative = inhibition              -10% (inactive)
4  O=C=Nc1ccc(Cc2ccc(N=C=O)cc2)cc1 (tested in a mixture with another compound)  activity, negative = inhibition            -1.09% (inactive)
5       O=C(O)[C@@H]1CCCN1Cc1c[nH]c2ccccc12  activity, negative = inhibition             3.95% (inactive)
6            Nc1nc(SCCc2ccccc2)c2[nH]cnc2n1  activity, negative = inhibition            -1.34% (inactive)
7                     N[C@H](CS(=O)O)C(=O)O  activity, negative = inhibition  17.2% [at 38 µM] (inactive)
8  C[C@@]12CCC(=O)C=C1CC[C@H]1[C@@H]2[C@@H](O)C[C@]2(C)[C@@H]1CC[C@@]2(O)C(=O)COC(=O)C1CCCC1  activity, negative = inhibition           -0.238% (inactive)

Just for reference, PubChem BioAssay (NCATS) is where these values come from.
